Listed next: entries and their corresponding viability, T/C.
system: 993429-296-R-J1-PDC complex spheroid growth, percent test/control; test: Anticancer human tumor 993429-296-R-J1-PDC patient-derived uterine sarcoma cell line growth inhibition [Asc]; details: second compound 0.1 µM; first compound 0.000316 µM; hits give low values
Use % as the unit, but write only the number.

Before answering, review these 3 worked examples.
compound	numeric value
NC1CCC(NC2CC2c2ccccc2)CC1 (centres undefined) + CNC(C)C(=O)NC1CN(S(=O)(=O)c2cccc(S(=O)(=O)N3CCC4CCC(C(=O)NC(c5ccccc5)c5ccccc5)N4C(=O)C(NC(=O)C(C)NC)C3)c2)CCC2CCC(C(=O)NC(c3ccccc3)c3ccccc3)N2C1=O	53.1
NC1CCC(NC2CC2c2ccccc2)CC1 (centres undefined) + Cc1c(S(C)(=O)=O)c(-c2cc(F)cc(N3CCN(c4ccc(NS(=O)(=O)c5ccc(NC(CCN6CCC(C(=O)OCCCP(=O)(O)O)CC6)CSc6ccccc6)c(S(=O)(=O)C(F)(F)F)c5)cc4)CC3)c2)c(-c2ccc(Cl)cc2)n1C(C)C	72.7
Cn1ncnc1[C@H]1c2n[nH]c(=O)c3cc(F)cc(c23)N[C@@H]1c1ccc(F)cc1 + Cc1c(S(C)(=O)=O)c(-c2cc(F)cc(N3CCN(c4ccc(NS(=O)(=O)c5ccc(NC(CCN6CCC(C(=O)OCCCP(=O)(O)O)CC6)CSc6ccccc6)c(S(=O)(=O)C(F)(F)F)c5)cc4)CC3)c2)c(-c2ccc(Cl)cc2)n1C(C)C	66.9

Now for the compound whose viability, T/C we want.
Tested system 993429-296-R-J1-PDC complex spheroid growth, percent test/control; viability, T/C recorded for Cn1ncnc1[C@H]1c2n[nH]c(=O)c3cc(F)cc(c23)N[C@@H]1c1ccc(F)cc1 + CNC(C)C(=O)NC1CN(S(=O)(=O)c2cccc(S(=O)(=O)N3CCC4CCC(C(=O)NC(c5ccccc5)c5ccccc5)N4C(=O)C(NC(=O)C(C)NC)C3)c2)CCC2CCC(C(=O)NC(c3ccccc3)c3ccccc3)N2C1=O was 52

* * *

Listed next: entries and their corresponding viability, T/C.
tested on: 993429-296-R-J1-PDC complex spheroid growth, percent test/control; experiment: Anticancer human tumor 993429-296-R-J1-PDC cell line growth inhibition [Asc]; conditions: second compound 0.316 µM; first compound 0.0316 µM; hits give low values;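 note: spheroids exposed to compounds for seven days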
Use % as the unit, but write only the number.

Before answering, review these 2 worked examples.
compound	quantity unit	viability, T/C
C=C(F)C(=O)N1CCN(c2nc(OCC3CCCN3C)nc3c2CCN(c2cccc4cccc(Cl)c24)C3)CC1CC#N (stereo not drawn) + Cc1c(S(C)(=O)=O)c(-c2cc(F)cc(N3CCN(c4ccc(NS(=O)(=O)c5ccc(NC(CCN6CCC(C(=O)OCCCP(=O)(O)O)CC6)CSc6ccccc6)c(S(=O)(=O)C(F)(F)F)c5)cc4)CC3)c2)c(-c2ccc(Cl)cc2)n1C(C)C	%	71.8
C#Cc1c(F)ccc2cc(O)cc(-c3ncc4c(N5CC6CCC(C5)N6)nc(OCC56CCCN5CC(F)C6)nc4c3F)c12 (stereo not drawn) + Cc1c(S(C)(=O)=O)c(-c2cc(F)cc(N3CCN(c4ccc(NS(=O)(=O)c5ccc(NC(CCN6CCC(C(=O)OCCCP(=O)(O)O)CC6)CSc6ccccc6)c(S(=O)(=O)C(F)(F)F)c5)cc4)CC3)c2)c(-c2ccc(Cl)cc2)n1C(C)C	%	55.4

Now for the compound whose viability, T/C we want.
Item: CCN1CCN(Cc2ccc(Nc3ncc(F)c(-c4cc(F)c5nc(C)n(C(C)C)c5c4)n3)nc2)CC1 + CNC(C)C(=O)NC1CN(S(=O)(=O)c2cccc(S(=O)(=O)N3CCC4CCC(C(=O)NC(c5ccccc5)c5ccccc5)N4C(=O)C(NC(=O)C(C)NC)C3)c2)CCC2CCC(C(=O)NC(c3ccccc3)c3ccccc3)N2C1=O | viability, T/C: 41
